biological target: Fuc(a1-2)Gal(b1-4)Glc6S; experiment: glycan array binding signal (z-score within array); higher = stronger binding; conditions: glycan notation: IUPAC condensed, linker removed
The full list was thinned out, with the strongest signals kept by preference.
MEASUREMENT KIND: glycan array binding signal (z-score)
One number for each entry.

- BINDER: "Ecp6 (Cladosporium fulvum), B3VBK9 (protein) MQSMILFAAALMGAAVNGFVLPRTDDPDCETKATDCGSTSNIKYTVVKGDTLTSIAKKFKSGICNIVSVNKLANPNLIELGATLIIPENCSNPDNKSCVSTPAEPTETCVPGLPGSYTIVSGDTLTNISQDFNITLDSLIAANTQIENPDAIDVGQIITVPVCPSSQCEAVGTYNIVAGDLFVDLAATYHTTIGQIKALNNNVNPSKLKVGQQIILPQDCKNVTTAVA"
  glycan array binding signal (z-score): -0.062

Okay, now this binder:
## Input Please list glycan array binding signal (z-score) recorded for the binder Epa8 (Candida glabrata) (protein) MGSSHHHHHHSSGLVPRGSHMASSRALSDYPLGCSPLLGTKLTPGLSMELYEYPLDNHGIGPHCWDPAYLNPEYPRTGFESHKLIGTAQNVMSLNFEHRTQDCHVEFSNLPASFNFPDQITLTNFTMLLYGYFKPKESGRYRFHMEADDLLLMNLGAGNAFDCCAHEATRNNLGDYIAYDIWAGTRKDVEVFLEKEVFYPLRLFFNNRDGRAALDFSYYLNGATEPGTDIPELLFSLPDGESCPAYI
## Output 0.004

FYI, the data here is from the supplement of paper PMC8728848.
